Values compiled from paper PMC12348835.

Tested on: BV-173
Test: MTT cell viability assay, BV-173
Format: cell-based, human
Settings: 72 h, ± standard deviation
quantity_name: IC50 (µM)
Write down the numeric answer in µM and omit the unit.

Looking for the measured IC50 of `Cc1ccc(NC(=O)[c-]2cccc2)cc1Nc1nccc(-c2cccnc2)n1.[Fe+2].c1cc[cH-]c1` , can you help? 17.9

Sample `Cc1ccc(NC(=O)c2ccc(CN3CCN(C)CC3)cc2)cc1Nc1nccc(-[c-]2cccc2)n1.[Fe+2].c1cc[cH-]c1` — what was its IC50? 33.6

I would be grateful if you could share the reported IC50 for `Cc1cn(-c2cc(NC(=O)c3ccc(C)c(Nc4nccc(-[c-]5cccc5)n4)c3)cc(C(F)(F)F)c2)cn1.[Fe+2].c1cc[cH-]c1` . 33.6

Look up IC50: `Cc1ccc(C(=O)N[c-]2cccc2)cc1Nc1nccc(-c2cccnc2)n1.[Fe+2].c1cc[cH-]c1` 15.1

====

Tested on: K-562
Assay: MTT cell viability assay, K-562
Type: cell-based, human
Conditions: 72 h, ± standard deviation
quantity_name: pIC50
The read-out pIC50 is expressed as -log10 of concentration in moles per litre.

What value of measured pIC50 is listed for Cc1ccc(NC(=O)c2ccc(CN3CCN(C)CC3)cc2)cc1Nc1nccc(-[c-]2cccc2)n1.[Fe+2].c1cc[cH-]c1 [Compound 6] ? 4.52

Would you mind telling me what pIC50 value was observed for Cc1cn(-c2cc(NC(=O)c3ccc(C)c(Nc4nccc(-[c-]5cccc5)n4)c3)cc(C(F)(F)F)c2)cn1.[Fe+2].c1cc[cH-]c1 [Compound 9] ? 4.59

====

Test: MTT cell viability assay, normal fibroblasts CCL-1
Assay type: cell-based, murine
Conditions: mouse, CCL-1 normal fibroblast cells, non-malignant fibroblasts, ± standard deviation
quantity_name: IC50 at 72 h

Need IC50 at 72 h, item Cc1ccc(NC(=O)c2ccc(CN3CCN(C)CC3)cc2)cc1Nc1nccc(-c2cccnc2)n1 [imatinib, reference compound] > 200 µM

====

Test system: LAMA-84
Test: MTT cell viability assay, LAMA-84
Format: cell-based, human
Details: 72 h, ± standard deviation
quantity_name: pIC50
Scale explanation: pIC50 corresponds to minus log10 of a concentration expressed in moles per litre.

Quick one: pIC50 of Cc1cn(-c2cc(NC(=O)c3ccc(C)c(Nc4nccc(-[c-]5cccc5)n4)c3)cc(C(F)(F)F)c2)cn1.[Fe+2].c1cc[cH-]c1 [Compound 9] ? 4.60

Param item = Cc1ccc(C(=O)N[c-]2cccc2)cc1Nc1nccc(-c2cccnc2)n1.[Fe+2].c1cc[cH-]c1 [Compound 18] ; retrieve measured pIC50. 4.57

Value lookup for pIC50; key = Cc1ccc(NC(=O)[c-]2cccc2)cc1Nc1nccc(-c2cccnc2)n1.[Fe+2].c1cc[cH-]c1 [Compound 14] 4.56

Request the reported pIC50 associated with Cc1ccc(NC(=O)c2ccc(CN3CCN(C)CC3)cc2)cc1Nc1nccc(-[c-]2cccc2)n1.[Fe+2].c1cc[cH-]c1 [Compound 6] 4.60

====

Kindly supply the reported IC50 values for the records listed here.
System: CCL-1
Assay: MTT cell viability assay, normal fibroblasts CCL-1
Format: cell-based, murine
Conditions: 72 h, non-malignant fibroblasts, ± standard deviation
Give just the numeric value; µM need not be written.

What value of IC50 has been reported for the following compound? `Cc1ccc(C(=O)N[c-]2cccc2)cc1Nc1nccc(-c2cccnc2)n1.[Fe+2].c1cc[cH-]c1` 60.2

Any idea what IC50 was measured for `Cc1ccc(NC(=O)c2ccc(CN3CCN(C)CC3)cc2)cc1Nc1nccc(-[c-]2cccc2)n1.[Fe+2].c1cc[cH-]c1` ? 55.7
